Recorded GI50 values for a group of compounds are listed next.
tested on: 786-0; assay: NCI tumour cell line growth inhibition, 48 h
Calls of active or inactive are those of the source. Rule as the data show it: active = GI50 up to about 1.1 µM and inactive = higher.

Look over these answered cases.
CCOC(=O)/C=C/c1ccccn1 | > 100 µM (inactive)
C=C1C(=O)O[C@@H]2/C=C(/C)[C@@H](OC(C)=O)C/C=C(\C)C(O)[C@@H](OC(=O)/C(C)=C\C)C12 (stereo partly specified) | 15.1 µM (inactive)
C#CCOC(=O)c1ccccc1O | > 100 µM (inactive)
CC(=O)OCC1OC(N2C(S)=C(C#N)C(c3ccco3)C(C(C)=O)=C2c2ccccc2)C(OC(C)=O)C(OC(C)=O)C1OC(C)=O (stereo unspecified) | 29.3 µM (inactive)
CN(C)c1ccc(/C=N/NC2=N/C(=C\c3ccco3)C(=O)N2)cc1 | > 100 µM (inactive)

## Input What does the record list as GI50 for Oc1c(CN2CCN(c3ccccc3)CC2)cc(Br)c2cccnc12 ?
## Output 1.4 µM (inactive)

----------
tested on: SF-268; experiment: NCI tumour cell line growth inhibition, 48 h
Calls of active or inactive are those of the source. Rule as the data show it: active = GI50 up to about 1.1 µM and inactive = higher.
measure: GI50

The examples below pair each entry with its known result.
CN1C2CCC1CC(CCOC(c1ccc(F)cc1)c1ccc(F)cc1)C2 (stereo unspecified) | 15.8 µM (inactive)
COc1ccc2[nH]c3c(c2c1)CC(=O)N1CCCC(CC3O)C1 (stereo unspecified) | > 100 µM (inactive)
COc1cc(C2c3cc4c(cc3OC(NNS(=O)(=O)c3ccc(C)cc3)C2C)OCO4)cc(OC)c1OC (stereo unspecified) | 3.95 µM (inactive)

## Input Give SF-268 GI50 for COc1ccccc1C1c2cc3c(cc2OC(O)(CO)C1C(=O)O)OCO3.COc1ccccc1C1c2cc3c(cc2OC2(O)COC(=O)C12)OCO3 (stereo unspecified)
## Output > 100 µM (inactive)

## Input # get_value(readout= GI50, system= SF-268) for NC(Cc1ccccc1)C(=O)OCN1C(=O)C2C3C=CC(C2C1=O)C1C2C(=O)N(COC(=O)C(N)Cc4ccccc4)C(=O)C2C31 (stereo unspecified)
## Output 25.9 µM (inactive)

## Input Hi! What's the reported GI50 for Oc1c(Cl)cc(CN(Cc2cc(Cl)c(O)c(Cl)c2)C2CCCCC2)cc1Cl on SF-268?
## Output > 100 µM (inactive)

----------
The entries below are paired with their reported GI50.
test system: SF-539; experiment: NCI tumour cell line growth inhibition, 48 h
The source made the active and inactive calls. Rule as the data show it: active = GI50 up to about 1.1 µM and inactive = higher.

O=c1c2ccccc2nc2n1C(c1ccc([N+](=O)[O-])cc1)C2(c1ccccc1)c1ccccc1 (stereo not drawn) | > 100 µM (inactive)
COc1ccc2[nH]c3c(c2c1)CC(=O)N1CCCC(CC3O)C1 (stereo not drawn) | > 100 µM (inactive)

Switching to the query record.
## Input Param item = N#Cc1c(N2CCCC2)ncn(-c2ccccc2)c1=S ; retrieve measured GI50.
## Output > 100 µM (inactive)

----------
tested on: ACHN; assay: NCI tumour cell line growth inhibition, 48 h
The source made the active and inactive calls. Rule as the data show it: active = GI50 up to about 1.1 µM and inactive = higher.
measure: GI50

Consider the following illustrative entries.
O=C(OCCC12CC3CC(CC(C3)C1)C2)c1ccc(NCc2cc(O)ccc2O)cc1 | 1.63 µM (inactive)
CCOP(=O)(OCC)C(C)(C)OC(=O)NC#N | > 100 µM (inactive)

## Input Field request: GI50 | item: Cc1ccc(C(=O)Nc2ccc(CP(=O)(O)O)cc2CP(=O)(O)O)cc1NC(=O)c1cccc(NC(=O)Nc2cccc(C(=O)Nc3cc(C(=O)Nc4ccc(CP(=O)(O)O)cc4CP(=O)(O)O)ccc3C)c2)c1
## Output > 100 µM (inactive)

## Input Give the measured GI50 of COc1cc(C=O)c(-c2cc(OC)c(OC)cc2C=O)cc1OC .
## Output > 100 µM (inactive)

## Input Look up GI50 for this compound: CC(C)(C)OC(=O)N1CCC2(C)CC(=O)CC=C12 (centres undefined)
## Output > 100 µM (inactive)

## Input Data request, read-out GI50, for O=C(O)C(CSC(c1ccccc1)(c1ccccc1)c1ccccc1)/N=C/c1cccs1 (centres undefined)
## Output 12.8 µM (inactive)

## Input Look up GI50: O=c1c2c3c(sc2nc2n1N=CN(c1ccc(F)cc1)C2)CCCC3
## Output > 100 µM (inactive)

## Input Which GI50 is reported for this compound? O=[N+]([O-])c1ccc(Cl)cc1C1ON=C(c2ccccc2)N1C12CC3CC(CC(C3)C1)C2 (centres undefined)
## Output > 100 µM (inactive)

## Input Requested read-out: GI50. Entry: C=C=C(Sc1ccccc1)C(C)(C)OC(C)=O
## Output > 10 µM (inactive)

----------
system: CAKI-1; assay: NCI tumour cell line growth inhibition, 48 h
Active and inactive are the calls of the source. Rule as the data show it: active = GI50 up to about 1.1 µM and inactive = higher.
Each record here notes measured GI50.

See these solved cases before continuing.
COc1ccc(/C=C/c2nnc(S)[nH]2)cc1 | > 100 µM (inactive)
O=S(=O)(c1ccc(/N=C2\NC(c3ccc(O)cc3)(c3ccccc3O)c3ccccc32)cc1)c1ccc(/N=C2/NC(c3ccc(O)cc3)(c3ccccc3O)c3ccccc32)cc1 (stereo unspecified) | 12.9 µM (inactive)
Oc1c(CN2CCN(c3ccccc3)CC2)cc(Br)c2cccnc12 | 1.21 µM (inactive)
O=C1[C@H]2ON(c3ccccc3)C(c3ccccc3F)[C@H]2C(=O)N1c1ccc(Cc2ccc(N3C(=O)[C@@H]4ON(c5ccccc5)C(c5ccccc5F)[C@@H]4C3=O)cc2)cc1 (stereo partly specified) | > 100 µM (inactive)
Cn1c(S)nnc1CNc1ccc(-c2nnc(S)n2C)cc1 | > 100 µM (inactive)

## Input Consider the compound CN(N=O)C(=O)ON1C(=O)CCC1=O and give its measured GI50.
## Output > 100 µM (inactive)

## Input Any idea what its GI50 is? The compound is COc1ccc(C(=O)C(c2ccc(OC)cc2)C2(O)C(=O)Nc3ccc([N+](=O)[O-])cc32)cc1 (stereo unspecified)
## Output > 100 µM (inactive)

## Input Can you share its GI50? I mean this compound: O=C(Cc1ccccc1)NNc1nc(NNC(=O)c2ccncc2)nc(Nc2ccc(Cl)cc2)n1
## Output > 10 µM (inactive)

## Input Look up GI50 for this compound: Cc1ccc(-c2n[nH]c(=O)n2N)cc1
## Output > 100 µM (inactive)

## Input Any idea what GI50 was measured for CCCCCCc1cc2cc(C(=O)Nc3ccccc3)c(=N)oc2cc1O ?
## Output 4.58 µM (inactive)

## Input Need GI50 of N#Cc1c(N2CCCC2)ncn(-c2ccccc2)c1=S , thanks.
## Output > 100 µM (inactive)

----------
tested on: SR; experiment: NCI tumour cell line growth inhibition, 48 h
Active and inactive are the calls of the source. No stated cut-off is given here; in the data, active = GI50 up to about 1.1 µM and inactive = higher.
measure: GI50

COc1ccccc1CC1(O)OC(=O)c2ccccc21 (stereo not given) | > 100 µM (inactive)

## Input Record request: GI50 value, item CCOP(=O)(OCC)C(C)(C)OC(=O)NC#N
## Output > 100 µM (inactive)

## Input Item under review: C#CCOC(=O)c1ccccc1O . Reported GI50?
## Output > 100 µM (inactive)

## Input Data request, read-out GI50, for c1ccc2sc(C3(N4CCC5(CC4)OCCO5)CCCCC3)cc2c1
## Output 7.89 µM (inactive)

## Input Recorded GI50 for CCOC(=O)n1cncc1CC(NC(=O)Cc1c(C(=O)C=C(C)C)[nH]c2ccccc12)C(=O)OC (stereo not given) , please?
## Output 3.56 µM (inactive)

----------
system: EKVX; test: NCI tumour cell line growth inhibition, 48 h
Calls of active or inactive are those of the source. Cut-off read from the data, not from the text of the source: active = GI50 up to about 1.1 µM and inactive = higher.
measure: GI50

Solved entries:
COc1cc(C(c2ccc3c(c2)OCO3)N2C(=O)CCC2C(=O)O)cc(OC)c1OC (configuration not stated) | > 100 µM (inactive)
O=C1CCCCC/C1=C\c1cccc([N+](=O)[O-])c1 | 33.7 µM (inactive)
COc1cc(/C=C/C=C2\CCC/C(=C\C=C\c3ccc(O)c(OC)c3)C2=O)ccc1O | 7.36 µM (inactive)

## Input Fill in: GI50 of NNC(=O)CS(=O)(=O)Nc1ncccn1 is ___
## Output > 100 µM (inactive)

## Input Entry COc1cc2cc3c4c(cc(OC)c(OC)c4c2cc1OC)CCN3C(=O)CCC(=O)NCCCN(C)C has what GI50?
## Output 72.1 µM (inactive)

## Input Given CC(C)=CCNc1nc(Cl)nc2[nH]cnc12 , state its recorded GI50.
## Output 15.7 µM (inactive)

## Input Given the entry O=c1c2cc([N+](=O)[O-])ccc2n(Cc2ccccc2)n1Cc1ccccc1 , report its measured GI50.
## Output 17.2 µM (inactive)

## Input Consider the compound CC1=C(/C(C)=N/NC(=O)c2ccccc2O)C(C)C(/C(C)=N/NC(=O)c2ccccc2O)=C(C)N1 and give its measured GI50.
## Output 14.7 µM (inactive)

## Input What does the data say about its GI50? Entry: CN(/N=C/c1ccc(Cl)c(Cl)c1)C1=NCCN1
## Output 59 µM (inactive)

## Input // query GI50 value for entry Clc1ccc(-c2nn3c(C45CC6CC(CC(C6)C4)C5)nnc3s2)cc1
## Output > 100 µM (inactive)

## Input Need GI50, item CCCN(CCCCC(NC(C)=O)C(=O)NCc1ccccc1)C(=O)NCCCl (configuration not stated)
## Output > 100 µM (inactive)

## Input Which GI50 is reported for this compound? COC(=O)c1c2c(c(-c3ccccc3)c3c1-c1nc(Cl)ccc1CC3)CCc1ccc(Cl)nc1-2
## Output 61.4 µM (inactive)

## Input Can you look up the measured GI50 of OC1c2ccccc2CCC1C(O)(C(F)(F)F)C(F)(F)F (configuration not stated) for me?
## Output > 100 µM (inactive)

## Input Reported GI50, compound CC1C(c2ccccc2O)c2cc3c(cc2OC1N1CCOCC1)OCO3 (configuration not stated) : ____
## Output 34.3 µM (inactive)

Where do these numbers come from? They come from ChEMBL document CHEMBL1201862.
